# Measurement target: Bromodomain adjacent to zinc finger domain protein 2B (Homo sapiens)
# Method notes: Displacement of biotinylated H3Kac14 peptide from His6-tagged human BAZ2B expressed in Escherichia coli BL21(DE3) at 200 uM after 30 mins by AlphaLISA assay relative to control
Listed compounds paired with reported inhibition
State the answer as a number, implicitly in %.

- Smiles input: "CC(=O)N1CCc2[nH]c3ccc(Oc4ccccc4)cc3c2C1"
  Measurement target: "Bromodomain adjacent to zinc finger domain protein 2B (Homo sapiens)"
  inhibition, %: 65
- Smiles input: "CC(=O)N1CCc2c(c3cc(Br)ccc3n2S(=O)(=O)c2ccc(C)cc2)C1"
  Measurement target: "Bromodomain adjacent to zinc finger domain protein 2B (Homo sapiens)"
  inhibition, %: 60
- Smiles input: "CC(=O)N1CCc2[nH]c3ccc(-c4cccnc4)cc3c2C1"
  Measurement target: "Bromodomain adjacent to zinc finger domain protein 2B (Homo sapiens)"
  inhibition, %: 55
- Smiles input: "CC(=O)N1CCc2[nH]c3ccc(N(C)C(C)=O)cc3c2C1"
  Measurement target: "Bromodomain adjacent to zinc finger domain protein 2B (Homo sapiens)"
  inhibition, %: 65
- Smiles input: "CC(=O)N1CCc2c(c3cc(Br)ccc3n2C(=O)OC(C)(C)C)C1"
  Measurement target: "Bromodomain adjacent to zinc finger domain protein 2B (Homo sapiens)"
  inhibition, %: 38

I am curious: what inhibition value has been reported for `CC(=O)N1CCc2c(c3cccc4c3n2CCS4)C1` ?
70

# get_value(readout='inhibition', item= `CC(=O)N1CCc2[nH]c3c(O)ccc(Cl)c3c2C1` )
52

What does the data say about its inhibition? Entry: `CC(=O)N1CCc2c(c3cccc4c3n2C(=O)CN4C)C1`
63

Given the compound `CC(=O)N1CCc2[nH]c3ccc(C(=O)O)cc3c2C1` , what is its reported inhibition?
48
